- TEST SYSTEM: IP1 receptor (Homo sapiens)
- Construct: expressed in transfected cells
- Sequence (P43119 whole entry): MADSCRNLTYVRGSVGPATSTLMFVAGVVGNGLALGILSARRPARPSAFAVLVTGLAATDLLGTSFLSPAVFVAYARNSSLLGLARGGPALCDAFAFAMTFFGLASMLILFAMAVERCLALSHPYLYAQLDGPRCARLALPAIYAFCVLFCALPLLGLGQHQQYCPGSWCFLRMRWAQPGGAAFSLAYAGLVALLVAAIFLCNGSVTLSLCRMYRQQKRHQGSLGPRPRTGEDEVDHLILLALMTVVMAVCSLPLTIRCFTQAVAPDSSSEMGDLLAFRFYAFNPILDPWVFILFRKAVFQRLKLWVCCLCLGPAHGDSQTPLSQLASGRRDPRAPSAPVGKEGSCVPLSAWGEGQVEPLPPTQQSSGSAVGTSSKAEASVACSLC
- METHOD NOTES: cAMP assay (TR-FRET or HTRF kit, forskolin), Examples 5 and 6
- Format: cell-based
- EXPERIMENTAL PARAMETERS: Table 4 (Example 6); read-out: EC50, IP receptor
READOUT KIND: pEC50
In plain terms, pEC50 is the concentration in mol/L turned into minus its base-10 logarithm.

Which pEC50 is reported for this molecule? CCCCC[C@H](O)CC[C@@H]1[C@H]2Cc3cccc(OCC(=O)NS(C)(=O)=O)c3C[C@H]2C[C@H]1O [Prodrug XIV, treprostinil methanesulfonamide] 8.48
